- System: human breast cancer cell line (MCF-7)
- assay explanation: MTT assay, cytotoxicity
- Format: cell-based
- condition details: MCF-7; 2500 μg/ml; 24 hours
- Method: Cancer cell lines were manipulated according to the method described by Sigounas et al.. […] The 3-[4,5-dimethylthiazol-2-yl]-2,5-diphenyltetrazolium bromide (MTT) colorimetric assay was used to examine the sensitivity of cells to tested compounds (as anticancer drugs), as previously described. […] The percentage of cell survival was calculated as follows: (1) Percentage of survival=O.D.treated cells/O.D.control cells×100. […]
Each record here notes measured survival percentage (mean ± SEM).
State just the number; it will be interpreted in %.

Asked: Indicate its recorded survival percentage (mean ± SEM); the compound in question is CCOC(=O)Cn1c(SCC(=O)Nc2ccc(C(=O)/C=C\c3cc(OC)c(OC)c(OC)c3)cc2)nc2sc3c(c2c1=O)CCN(C(=O)OCC)C3
Given back: 20.1

Asked: Indicate its recorded survival percentage (mean ± SEM); the compound in question is CCOC(=O)N1CCc2c(sc3nc(SCC(=O)Nc4ccc(C(=O)/C=C\c5cc(OC)c(OC)c(OC)c5)cc4)[nH]c(=O)c23)C1
Given back: 17.9

Asked: Indicate its recorded survival percentage (mean ± SEM); the compound in question is CCOCc1nc2sc3c(c2c(=O)n1CC(=O)Nc1ccc(C(=O)/C=C\c2cccc([N+](=O)[O-])c2)cc1)CCN(C(=O)OCC)C3
Given back: 6.2
